I would appreciate it if you labelled entries Yes when melting point is 100 °C or higher, otherwise No.

1. Nc1ccc(C(F)(F)F)cc1 ... No
2. O=C(O)c1cc(Cl)c(O)c(Cl)c1 ... Yes
3. C[NH+](C)CCC(c1ccc(Cl)cc1)c1ccccn1.O=C([O-])/C=C\C(=O)O (stereo unspecified) ... Yes
4. c1ccc2[nH]ncc2c1 ... Yes
5. COc1c2occc2cc2ccc(=O)oc12 ... Yes
6. CC1(C)OC(=O)CC1CC(=O)O (stereo unspecified) ... No

---

Listed below: log10 Henry constant (atm·m³/mol) values for each entry.
Readout label: log10 Henry constant (atm·m³/mol)

1) CC(C)CCOC=O ... -3.17
2) Clc1ccc(-c2ccc(Cl)c(Cl)c2)cc1Cl ... -5.03
3) Cc1ccc(C)nc1 ... -5.06
4) CCCCCCC(C)=O ... -3.73
5) CCCCN ... -4.76
6) c1ccc2cc3c(ccc4ccccc43)cc2c1 ... -4.92
7) CC(=O)C1CC1 ... -4.99
8) Clc1cccc(-c2ccccc2)c1 ... -3.21
9) Cc1cc2ccccc2cc1C ... -3.04
10) C/C=C\C ... -0.643
11) c1ccc2c(c1)-c1ccc3ccc4cccc5cc-2c1c3c45 ... -6.46
12) C/C=C/C=O ... -4.84
13) Cc1ccc(N)cc1C ... -5.73
14) ClC=C(Cl)Cl ... -2.01
15) ClC1=C(Cl)C(Cl)(Cl)C(Cl)=C1Cl ... -1.57
16) CCCCCCO[N+](=O)[O-] ... -2.83
17) Cc1cncc(C)c1 ... -5.16
18) Clc1cc(Cl)c(Cl)c(-c2c(Cl)c(Cl)cc(Cl)c2Cl)c1Cl ... -4.74
19) Oc1ccccc1F ... -5.49
20) Cc1ccc(/N=C/N(C)/C=N/c2ccc(C)cc2C)c(C)c1 ... -5.01
21) Clc1cc(Cl)c(Cl)c(Cl)c1Cl ... -3.15
22) ICI ... -3.49
23) Clc1cc(Cl)c(-c2cc(Cl)c(Cl)cc2Cl)cc1Cl ... -4.64
24) COCCO ... -6.48
25) C=CC(C)(O)CCC=C(C)C (stereo unspecified) ... -4.67
26) Cc1cccc([N+](=O)[O-])c1 ... -5.03
27) CCCCCCCCCCO ... -4.49
28) CCCCCO[N+](=O)[O-] ... -2.78
29) c1ccc2cc3c(cc2c1)-c1cccc2cccc-3c12 ... -6.23
30) Clc1ccccc1-c1cccc(Cl)c1Cl ... -3.7
31) COc1nccnc1CC(C)C ... -4.31
32) C=CC#N ... -3.86
33) CC(C)CCO ... -4.85
34) C1CO1 ... -3.83
35) O=[N+]([O-])c1cc(Cl)ccc1Cl ... -4.92
36) Cc1cc(Cl)c(Cl)cc1Cl ... -2.82
37) Clc1ccccc1-c1ccc(Cl)c(Cl)c1Cl ... -3.85
38) Clc1cc(-c2c(Cl)c(Cl)cc(Cl)c2Cl)c(Cl)c(Cl)c1Cl ... -5
39) COc1ccc(C(c2ccc(OC)cc2)C(Cl)(Cl)Cl)cc1 ... -6.69
40) CCOCCO ... -6.33
41) Cc1cccnc1 ... -5.11
42) CC(C)NC(=O)N1CC(=O)N(c2cc(Cl)cc(Cl)c2)C1=O ... -8.51
43) CCCOC(=O)NCCCN(C)C ... -8.83
44) O=Cc1ccc(O)cc1 ... -9.29
45) Cc1cccc(O)c1[N+](=O)[O-] ... -5.51
46) FC(F)Cl ... -1.39
47) C1=CCCCC1 ... -1.34
48) CCCCCCCCCC(C)=O ... -4.2
49) CCCCCCCO ... -4.73
50) Clc1cccc(-c2cc(Cl)c(Cl)cc2Cl)c1 ... -4
51) CN(C)C ... -3.98
52) Clc1cc(Cl)cc(-c2c(Cl)c(Cl)cc(Cl)c2Cl)c1 ... -4.54
53) CCCCCCO ... -4.77
54) Clc1ccc(-c2ccc(Cl)cc2)cc1 ... -3.7
55) Clc1cc(-c2c(Cl)ccc(Cl)c2Cl)c(Cl)c(Cl)c1Cl ... -4.85
56) Clc1ccc(-c2c(Cl)c(Cl)c(Cl)c(Cl)c2Cl)c(Cl)c1Cl ... -4.96
57) CCCCCI ... -1.71
58) Cc1cccc(C)c1C ... -2.36
59) CCc1cccnc1 ... -4.98
60) CC(C)(C)OC=O ... -3.16
61) Clc1cccc(-c2c(Cl)c(Cl)c(Cl)c(Cl)c2Cl)c1 ... -4.7
